# method: Selectivity index, ratio of CC50 for cytotoxicity against human CEM cells to EC50 for antiviral activity against HIV-2 ROD infected in thymidine kinase deficient human CEM cells
# Assay type: toxicity, cell-based
# condition-info: read-out: Ratio CC50/EC50
Below, each entry is listed alongside its reported selectivity ratio.

Some solved entries appear below for comparison.
CCCCCCCCCCCC(=O)Oc1ccc(COOP(=O)(O)OP(=O)(O)OP(=O)(O)CO[C@H](C)Cn2cnc3c(N)ncnc32)cc1 = > 333
C[C@H](Cn1cnc2c(N)ncnc21)OCP(=O)(O)O [TENOFOVIR ANHYDROUS] = > 113
CCCCCCCCCCCOP(=O)(OCc1ccc(OC(=O)CCCCCCCC)cc1)OP(=O)(O)OP(=O)(O)CO[C@H](C)Cn1cnc2c(N)ncnc21 (some centres undefined) = > 185

Kindly review the next compound as well.
Which selectivity ratio value belongs to CCCCCCCCCCCCCCCCCCOP(=O)(OCc1ccc(OC(=O)CCCCCC)cc1)OP(=O)(O)OP(=O)(O)CO[C@H](C)Cn1cnc2c(N)ncnc21 (some centres undefined) ? > 256
